Measured EC50 accompanies every entry in the list below.
biological target: Aedes aegypti neuropeptide Y-like receptor 7 (NPYLR7); assay: agonists of mosquito NPYLR7 receptor, confirmation, cell-based, Aedes aegypti, hit validation, mosquito biting behavior (AID 1259427); settings: HEK293T NPYLR7/Galpha15/GCaMP6s, calcium fluorescence;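 further: potency of agonists that activate the receptor and raise the calcium signal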
Calls of active or inactive are those of the source.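 How the source made its calls: active means EC50 at or below a set limit, with no effect in the paired counter-screen assay; inactive means the rest.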

Consider the following illustrative entries.
NC(=NCCCCCCN=C(N)N=C(N)Nc1ccc(Cl)cc1)N=C(N)Nc1ccc(Cl)cc1    2.66 µM
CCn1c(=O)c2c(nc(/C=C/c3ccc(OC)c(OC)c3)n2C)n(CC)c1=O    > 20 µM (inactive)
NS(=O)(=O)c1ccc(NC(NC(=O)c2ccco2)C(=O)c2ccc(Cl)cc2)cc1 (stereo unspecified)    > 20 µM (inactive)
CCc1nc(N=C(N)N)nc2cc(C)ccc12    7.66 µM
CN1C(=S)N(c2ccc3c(c2)CCC3)C(=O)/C1=C\c1ccncc1    > 20 µM (inactive)

Ask | Which measured EC50 value corresponds to C=CCN1C(=O)C(Cc2ccc(OC)cc2)S/C1=N/N=C\c1cccs1 (stereo unspecified) ?
Reply | > 20 µM (inactive)

Ask | Which measured EC50 value corresponds to COc1cccc(CNC2CC2)c1OCc1nc(CO)cs1 ?
Reply | > 20 µM (inactive)

Ask | Which measured EC50 value corresponds to Cn1c(/C(C#N)=C/c2ccc(N3CCOCC3)o2)nc2ccccc21 ?
Reply | 14.9 µM

Ask | Which measured EC50 value corresponds to COC(=O)c1cnc(/C=C/c2cc(C)c(O)c(C)c2)s1 ?
Reply | > 20 µM (inactive)

Ask | Which measured EC50 value corresponds to O=C1SC(Nc2ccc(Br)cc2)C(=O)N1c1ccccc1 (stereo unspecified) ?
Reply | > 20 µM (inactive)
